Source listed as patent US4487771A.

Task for the reader: assign each of the following compounds its reported ED50.
protocol-description: Anti-ECS
Assay type: in vivo
test-parameters: death; oral; 60 minutes before ECS; read-out: Anti-ECS, Death DE50
One number for each entry, in mg/kg.

Please review the entries below; each comes with its answer.
O=C1Nc2ccc(Cl)cc2C(c2ccccc2)=NC1O (stereo not shown) [Oxazepam, reference compound] = 4
CC(=O)NCC(=O)OC1N=C(c2ccccc2)c2cc(Cl)ccc2NC1=O (stereo not shown) [Example 5] = 0.32
CC(C)(C)OC(=O)NCCCC(=O)OC1N=C(c2ccccc2)c2cc(Cl)ccc2NC1=O (stereo not shown) [Example 2] = 1
CC(=O)NCCCC(=O)OC1N=C(c2ccccc2Cl)c2cc(Cl)ccc2NC1=O (stereo not shown) [Example 3] = 0.02
CC(=O)NCCCC(=O)OC1N=C(c2ccccc2)c2cc(Cl)ccc2N(C)C1=O (stereo not shown) [Example 4] = 0.7
CC(=O)NCCCC(=O)OC1N=C(c2ccccc2Cl)c2cc(Cl)ccc2N(C)C1=O (stereo not shown) [Example 6] = 0.032

Let us examine a further case.
Consider CC(=O)NCCCC(=O)OC1N=C(c2ccccc2)c2cc(Cl)ccc2NC1=O (stereo not shown) [Example 1] . Its measured ED50 is 0.22

###

Task for the reader: assign each of the following molecules its reported ED50.
protocol-description: Anti-pentylenetetrazol
Assay type: in vivo
test-parameters: death; oral; 30 minutes before pentylenetetrazol treatment 130 mg/kg s.c.; read-out: Anti-pentylenetetrazol, Death DE50
Answers are plain numbers, in mg/kg.

Please review the entries below; each comes with its answer.
CC(=O)NCCCC(=O)OC1N=C(c2ccccc2)c2cc(Cl)ccc2N(C)C1=O (stereo not drawn) = 2.2
CC(=O)NCCCC(=O)OC1N=C(c2ccccc2Cl)c2cc(Cl)ccc2NC1=O (stereo not drawn) = 0.15

Let us examine a further case.
Consider CC(=O)NCCCC(=O)OC1N=C(c2ccccc2)c2cc(Cl)ccc2NC1=O (stereo not drawn) . Its measured ED50 is 4

###

protocol-description: Anti-ECS
Format: in vivo
test-parameters: convulsions; oral; 60 minutes before ECS; read-out: Anti-ECS, Convulsions DE50
Task for the reader: assign each of the following compounds its reported ED50.
Answers are plain numbers, in mg/kg.

Please review the entries below; each comes with its answer.
CC(=O)NCCCC(=O)OC1N=C(c2ccccc2Cl)c2cc(Cl)ccc2NC1=O (stereo not shown) = 4.6
O=C1Nc2ccc(Cl)cc2C(c2ccccc2)=NC1O (stereo not shown) [Oxazepam, reference compound] = 40
CC(=O)NCCCC(=O)OC1N=C(c2ccccc2Cl)c2cc(Cl)ccc2N(C)C1=O (stereo not shown) = 5.5

Let us examine a further case.
Consider CC(=O)NCCCC(=O)OC1N=C(c2ccccc2)c2cc(Cl)ccc2NC1=O (stereo not shown) . Its measured ED50 is 38
